TGT: Peroxisome proliferator-activated receptor delta (Homo sapiens, UniProt Q03181)
Sequence (Q03181 whole entry, the tested form may be a part): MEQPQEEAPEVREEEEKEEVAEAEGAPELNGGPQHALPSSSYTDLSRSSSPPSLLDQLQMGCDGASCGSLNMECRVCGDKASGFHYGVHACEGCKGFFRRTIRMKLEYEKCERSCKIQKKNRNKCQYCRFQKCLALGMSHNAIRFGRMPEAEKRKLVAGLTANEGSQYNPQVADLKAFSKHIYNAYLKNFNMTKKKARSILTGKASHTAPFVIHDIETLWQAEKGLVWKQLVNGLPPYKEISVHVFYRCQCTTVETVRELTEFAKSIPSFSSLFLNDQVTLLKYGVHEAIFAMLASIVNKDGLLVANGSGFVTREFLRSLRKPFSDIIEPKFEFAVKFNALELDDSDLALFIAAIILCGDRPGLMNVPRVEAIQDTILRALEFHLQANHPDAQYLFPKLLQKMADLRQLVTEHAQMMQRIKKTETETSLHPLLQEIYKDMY
MEASUREMENT_PROTOCOL: Agonist activity at GAL4-tagged human PPARbeta/delta transfected in African green monkey COS7 cells assessed as transcriptional activation by measuring effective concentration incubated for 24 hrs by luciferase assay
OBSERVATION_TYPE: EC50 (µM)
One number for each entry, in µM.

Q. State its EC50 for this compound: CCOC(=O)CC/C(C)=C/CCc1ccc2cc(OCc3ccccc3)ccc2n1
A. 1.51

###

TGT: Peroxisome proliferator-activated receptor alpha (Homo sapiens)
Sequence (Q07869 whole entry, the tested form may be a part): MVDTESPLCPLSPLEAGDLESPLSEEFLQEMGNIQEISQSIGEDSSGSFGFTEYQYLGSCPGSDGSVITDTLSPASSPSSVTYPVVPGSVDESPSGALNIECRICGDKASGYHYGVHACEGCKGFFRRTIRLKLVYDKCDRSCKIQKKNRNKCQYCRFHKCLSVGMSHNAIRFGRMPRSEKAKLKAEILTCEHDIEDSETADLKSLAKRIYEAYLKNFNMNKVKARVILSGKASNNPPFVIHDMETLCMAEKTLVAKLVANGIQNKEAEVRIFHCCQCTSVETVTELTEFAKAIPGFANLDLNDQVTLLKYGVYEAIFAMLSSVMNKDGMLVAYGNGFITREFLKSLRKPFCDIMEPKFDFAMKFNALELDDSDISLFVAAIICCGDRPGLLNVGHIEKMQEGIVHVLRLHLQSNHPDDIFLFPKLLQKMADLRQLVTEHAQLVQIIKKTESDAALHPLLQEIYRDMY
MEASUREMENT_PROTOCOL: Agonist activity at GAL4-tagged human PPARalpha transfected in African green monkey COS7 cells assessed as transcriptional activation by measuring effective concentration incubated for 24 hrs by luciferase assay
Assay type: cell-based
STUDY_CONDITIONS: read-out: EC50
Would you kindly list EC50 for each of these compounds?
One number for each entry, in µM.

>>> assay_value("CCOC(=O)CC/C(C)=C/CCc1ccc2cc(OCc3ccccc3)ccc2n1")
3.2

Q. Retrieve EC50 measured for CCOC(=O)CC/C(C)=C/CCC1(C)CCc2cc(OCc3ccccc3)ccc2O1 (configuration not stated) and print it.
A. 2.95
